Biological target: hmGluR3 (Homo sapiens)
Construct: expressed in transfected cells
Sequence (Q14832 23-879): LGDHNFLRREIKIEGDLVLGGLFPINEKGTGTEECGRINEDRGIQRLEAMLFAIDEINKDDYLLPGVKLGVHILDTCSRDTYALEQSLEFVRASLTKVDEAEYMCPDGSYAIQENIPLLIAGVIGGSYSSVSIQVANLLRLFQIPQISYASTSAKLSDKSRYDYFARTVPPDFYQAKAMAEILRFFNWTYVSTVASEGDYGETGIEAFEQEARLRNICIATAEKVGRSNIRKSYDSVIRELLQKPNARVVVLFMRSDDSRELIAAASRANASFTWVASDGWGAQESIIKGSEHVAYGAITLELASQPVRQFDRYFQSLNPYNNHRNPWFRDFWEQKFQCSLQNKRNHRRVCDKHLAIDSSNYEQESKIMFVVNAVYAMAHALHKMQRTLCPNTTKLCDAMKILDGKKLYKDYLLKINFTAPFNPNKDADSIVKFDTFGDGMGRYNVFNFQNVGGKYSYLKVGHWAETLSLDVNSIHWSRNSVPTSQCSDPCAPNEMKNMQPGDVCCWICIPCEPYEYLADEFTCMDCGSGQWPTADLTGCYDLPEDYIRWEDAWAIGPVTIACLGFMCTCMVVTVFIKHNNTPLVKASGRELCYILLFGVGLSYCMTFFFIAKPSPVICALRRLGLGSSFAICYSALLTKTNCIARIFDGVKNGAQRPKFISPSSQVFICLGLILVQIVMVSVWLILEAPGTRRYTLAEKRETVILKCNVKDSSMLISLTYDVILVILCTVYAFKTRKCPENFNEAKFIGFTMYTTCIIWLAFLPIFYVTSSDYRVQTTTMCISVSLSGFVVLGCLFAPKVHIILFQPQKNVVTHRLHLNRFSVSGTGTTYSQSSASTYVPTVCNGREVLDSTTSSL
Experiment: Selectivity functional receptor assay, mGluR3
Type: cell-based
Conditions: hmGluR2 versus mGluR3

Entry Smiles: COc1ccc(F)cc1C1CCN(c2ccn3c(CC4CC4)nnc3c2Cl)CC1
Selectivity over mGluR3: ≥ 40 fold
//
Entry Smiles: COc1c(C2CCN(c3ccn4c(CC5CC5)nnc4c3Cl)CC2)ccc(F)c1F
Selectivity over mGluR3: ≥ 400 fold
//
Entry Smiles: COc1c(F)cccc1C1CCN(c2ccn3c(CC4CC4)nnc3c2C(F)(F)F)CC1
Selectivity over mGluR3: ≥ 200 fold
//
Entry Smiles: COc1cccc(F)c1C1CCN(c2ccn3c(CC4CC4)nnc3c2Cl)CC1
Selectivity over mGluR3: > 300 fold
//
Entry Smiles: COc1ccccc1C1CCN(c2ccn3c(CC4CC4)nnc3c2Cl)CC1
Selectivity over mGluR3: ~20 fold

---

Test: Biodistribution studies of 11C tracers
Type: in vivo, Wistar rats
Settings: 2 min p.i., normalized for body weight
Value Type: SUV Hippocampus

Compound: [11CH3]Oc1cccc(F)c1C1CCN(c2ccn3c(CC4CC4)nnc3c2Cl)CC1 [[^11C]B-6]
Result Number: 0.86
//
Compound: [11CH3]Oc1cc(F)cc(F)c1C1CCN(c2ccn3c(CC4CC4)nnc3c2Cl)CC1 [[^11C]B-7]
Result Number: 0.85
//
Compound: [11CH3]Oc1ccc(F)cc1C1CCN(c2ccn3c(CC4CC4)nnc3c2Cl)CC1 [[^11C]B-4]
Result Number: 1.04
//
Compound: [11CH3]Oc1ccc(F)c(F)c1C1CCN(c2ccn3c(CC4CC4)nnc3c2Cl)CC1 [[^11C]B-10]
Result Number: 1.11
//
Compound: [11CH3]Oc1c(F)ccc(F)c1C1CCN(c2ccn3c(CC4CC4)nnc3c2C(F)(F)F)CC1 [[^11C]B-3]
Result Number: 0.85
//
Compound: [11CH3]Oc1c(F)ccc(F)c1C1CCN(c2ccn3c(CC4CC4)nnc3c2Cl)CC1 [[^11C]B-2]
Result Number: 0.90

---

Assay: Biodistribution studies of 11C tracers
Type: in vivo, Wistar rats
Conditions: 30 min p.i.
So basically, if % ID Hippocampus comes in under 0.03 % ID it's 1 (yes), and if it's 0.03 % ID or more it's 0 (no).

Compound: [11CH3]Oc1ccc(F)c(F)c1C1CCN(c2ccn3c(CC4CC4)nnc3c2Cl)CC1 [[^11C]B-10]
Class Assignment: 1 (yes)
--
Compound: [11CH3]Oc1ccc(F)cc1C1CCN(c2ccn3c(CC4CC4)nnc3c2Cl)CC1 [[^11C]B-4]
Class Assignment: 1 (yes)
--
Compound: [11CH3]Oc1cccc(F)c1C1CCN(c2ccn3c(CC4CC4)nnc3c2Cl)CC1 [[^11C]B-6]
Class Assignment: 1 (yes)
--
Compound: [11CH3]Oc1c(F)ccc(F)c1C1CCN(c2ccn3c(CC4CC4)nnc3c2C(F)(F)F)CC1 [[^11C]B-3]
Class Assignment: 1 (yes)
--
Compound: [11CH3]Oc1c(F)ccc(F)c1C1CCN(c2ccn3c(CC4CC4)nnc3c2Cl)CC1 [[^11C]B-2]
Class Assignment: 0 (no)

---

Experiment: Biodistribution studies of 11C tracers
Type: in vivo, Wistar rats
Details: 60 min p.i.
Value Type: % ID Cerebellum (% ID)

Molecule: [11CH3]Oc1c(F)ccc(F)c1C1CCN(c2ccn3c(CC4CC4)nnc3c2C(F)(F)F)CC1 [[^11C]B-3]
Value Type: % ID Cerebellum
Readout Units: % ID
Result Number: 0.142

Molecule: [11CH3]Oc1cc(F)cc(F)c1C1CCN(c2ccn3c(CC4CC4)nnc3c2Cl)CC1 [[^11C]B-7]
Value Type: % ID Cerebellum
Readout Units: % ID
Result Number: 0.163

Molecule: [11CH3]Oc1ccc(F)cc1C1CCN(c2ccn3c(CC4CC4)nnc3c2Cl)CC1 [[^11C]B-4]
Value Type: % ID Cerebellum
Readout Units: % ID
Result Number: 0.144

Molecule: [11CH3]Oc1c(F)ccc(F)c1C1CCN(c2ccn3c(CC4CC4)nnc3c2Cl)CC1 [[^11C]B-2]
Value Type: % ID Cerebellum
Readout Units: % ID
Result Number: 0.142

Molecule: [11CH3]Oc1ccc(F)c(F)c1C1CCN(c2ccn3c(CC4CC4)nnc3c2Cl)CC1 [[^11C]B-10]
Value Type: % ID Cerebellum
Readout Units: % ID
Result Number: 0.172

Molecule: [11CH3]Oc1cccc(F)c1C1CCN(c2ccn3c(CC4CC4)nnc3c2Cl)CC1 [[^11C]B-6]
Value Type: % ID Cerebellum
Readout Units: % ID
Result Number: 0.155

---

Assay: Biodistribution studies of 11C tracers
Format: in vivo, Wistar rats
Conditions: 30 min p.i.
Method: Biodistribution studies were carried out in healthy male Wistar rats (body weight 200-450 g) at 2 min, 30 min and 60 min post injection (p.i.) (n=3/time point). […] The radioactivity in blood, organs and other body parts was measured using an automated gamma counter. […] For calculation of total radioactivity in blood, blood mass was assumed to be 7% of the body mass.

Molecule: [11CH3]Oc1cc(F)cc(F)c1C1CCN(c2ccn3c(CC4CC4)nnc3c2Cl)CC1 [[^11C]B-7]
% ID Urine / % ID: 0.4
--
Molecule: [11CH3]Oc1c(F)ccc(F)c1C1CCN(c2ccn3c(CC4CC4)nnc3c2C(F)(F)F)CC1 [[^11C]B-3]
% ID Urine / % ID: 0.5
--
Molecule: [11CH3]Oc1ccc(F)c(F)c1C1CCN(c2ccn3c(CC4CC4)nnc3c2Cl)CC1 [[^11C]B-10]
% ID Urine / % ID: 0.3
--
Molecule: [11CH3]Oc1ccc(F)cc1C1CCN(c2ccn3c(CC4CC4)nnc3c2Cl)CC1 [[^11C]B-4]
% ID Urine / % ID: 0.3
--
Molecule: [11CH3]Oc1cccc(F)c1C1CCN(c2ccn3c(CC4CC4)nnc3c2Cl)CC1 [[^11C]B-6]
% ID Urine / % ID: 0.3
--
Molecule: [11CH3]Oc1c(F)ccc(F)c1C1CCN(c2ccn3c(CC4CC4)nnc3c2Cl)CC1 [[^11C]B-2]
% ID Urine / % ID: 0.3

---

Test: Biodistribution studies of 11C tracers
Format: in vivo, Wistar rats
Details: 30 min p.i.

Compound: [11CH3]Oc1ccc(F)cc1C1CCN(c2ccn3c(CC4CC4)nnc3c2Cl)CC1 [[^11C]B-4]
% ID Rest of cerebrum (% ID): 0.469

Compound: [11CH3]Oc1cc(F)cc(F)c1C1CCN(c2ccn3c(CC4CC4)nnc3c2Cl)CC1 [[^11C]B-7]
% ID Rest of cerebrum (% ID): 0.523

Compound: [11CH3]Oc1ccc(F)c(F)c1C1CCN(c2ccn3c(CC4CC4)nnc3c2Cl)CC1 [[^11C]B-10]
% ID Rest of cerebrum (% ID): 0.511

Compound: [11CH3]Oc1cccc(F)c1C1CCN(c2ccn3c(CC4CC4)nnc3c2Cl)CC1 [[^11C]B-6]
% ID Rest of cerebrum (% ID): 0.580

Compound: [11CH3]Oc1c(F)ccc(F)c1C1CCN(c2ccn3c(CC4CC4)nnc3c2C(F)(F)F)CC1 [[^11C]B-3]
% ID Rest of cerebrum (% ID): 0.373

Compound: [11CH3]Oc1c(F)ccc(F)c1C1CCN(c2ccn3c(CC4CC4)nnc3c2Cl)CC1 [[^11C]B-2]
% ID Rest of cerebrum (% ID): 0.704

---

Experiment: Biodistribution studies of 11C tracers
Type: in vivo, Wistar rats
Settings: 60 min p.i.

Molecule: [11CH3]Oc1ccc(F)cc1C1CCN(c2ccn3c(CC4CC4)nnc3c2Cl)CC1 [[^11C]B-4]
% ID Rest of cerebrum [% ID]: 0.450

Molecule: [11CH3]Oc1c(F)ccc(F)c1C1CCN(c2ccn3c(CC4CC4)nnc3c2C(F)(F)F)CC1 [[^11C]B-3]
% ID Rest of cerebrum [% ID]: 0.371

Molecule: [11CH3]Oc1cccc(F)c1C1CCN(c2ccn3c(CC4CC4)nnc3c2Cl)CC1 [[^11C]B-6]
% ID Rest of cerebrum [% ID]: 0.468

Molecule: [11CH3]Oc1ccc(F)c(F)c1C1CCN(c2ccn3c(CC4CC4)nnc3c2Cl)CC1 [[^11C]B-10]
% ID Rest of cerebrum [% ID]: 0.466

Molecule: [11CH3]Oc1c(F)ccc(F)c1C1CCN(c2ccn3c(CC4CC4)nnc3c2Cl)CC1 [[^11C]B-2]
% ID Rest of cerebrum [% ID]: 0.421

Molecule: [11CH3]Oc1cc(F)cc(F)c1C1CCN(c2ccn3c(CC4CC4)nnc3c2Cl)CC1 [[^11C]B-7]
% ID Rest of cerebrum [% ID]: 0.435

---

Test: Biodistribution studies of 11C tracers
Format: in vivo, Wistar rats
Details: 2 min p.i.
Entries and their % ID Intestines
Value Type: % ID Intestines (% ID)

Compound: [11CH3]Oc1cccc(F)c1C1CCN(c2ccn3c(CC4CC4)nnc3c2Cl)CC1 [[^11C]B-6]
Result Number: 7.6
--
Compound: [11CH3]Oc1cc(F)cc(F)c1C1CCN(c2ccn3c(CC4CC4)nnc3c2Cl)CC1 [[^11C]B-7]
Result Number: 8.2
--
Compound: [11CH3]Oc1c(F)ccc(F)c1C1CCN(c2ccn3c(CC4CC4)nnc3c2C(F)(F)F)CC1 [[^11C]B-3]
Result Number: 9.4
--
Compound: [11CH3]Oc1ccc(F)cc1C1CCN(c2ccn3c(CC4CC4)nnc3c2Cl)CC1 [[^11C]B-4]
Result Number: 7.3
--
Compound: [11CH3]Oc1c(F)ccc(F)c1C1CCN(c2ccn3c(CC4CC4)nnc3c2Cl)CC1 [[^11C]B-2]
Result Number: 8.5
--
Compound: [11CH3]Oc1ccc(F)c(F)c1C1CCN(c2ccn3c(CC4CC4)nnc3c2Cl)CC1 [[^11C]B-10]
Result Number: 8.5
